- target entity: T1, human SLC34A2 (human, UniProt O95436 1-690)
- T1 construct: whole, on cells; also called human solute carrier 34 A2; NaPi2b
- T1 sequence (looked up): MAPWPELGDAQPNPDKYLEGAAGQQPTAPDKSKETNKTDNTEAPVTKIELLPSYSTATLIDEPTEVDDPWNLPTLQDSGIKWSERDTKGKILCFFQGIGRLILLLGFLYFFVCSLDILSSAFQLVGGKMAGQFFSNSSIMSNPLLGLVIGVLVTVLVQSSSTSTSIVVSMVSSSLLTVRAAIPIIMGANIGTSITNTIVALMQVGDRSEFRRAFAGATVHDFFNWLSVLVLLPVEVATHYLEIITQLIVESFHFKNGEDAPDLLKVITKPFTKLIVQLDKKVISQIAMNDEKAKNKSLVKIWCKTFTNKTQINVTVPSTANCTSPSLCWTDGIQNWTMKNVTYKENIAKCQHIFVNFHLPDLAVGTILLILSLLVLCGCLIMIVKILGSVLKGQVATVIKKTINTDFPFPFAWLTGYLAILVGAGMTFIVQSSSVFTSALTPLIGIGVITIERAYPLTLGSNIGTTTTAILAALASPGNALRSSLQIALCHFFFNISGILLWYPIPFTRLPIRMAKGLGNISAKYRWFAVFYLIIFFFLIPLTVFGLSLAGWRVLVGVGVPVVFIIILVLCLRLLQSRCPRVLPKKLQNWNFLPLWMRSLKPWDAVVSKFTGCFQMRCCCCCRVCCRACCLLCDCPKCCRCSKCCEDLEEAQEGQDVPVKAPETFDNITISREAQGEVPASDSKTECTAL
- assay text: FACS, OVCAR3 cells
measured property: pEC50
pEC50 here is simply -log10 of the concentration when that concentration is written in mol/L.

In the examples that follow, each entry is paired with its recorded pEC50.
binder | reported value
30H9B8F9.p1.z5 hIgG1 (antibody, V domains shown, humanized hIgG1) VH: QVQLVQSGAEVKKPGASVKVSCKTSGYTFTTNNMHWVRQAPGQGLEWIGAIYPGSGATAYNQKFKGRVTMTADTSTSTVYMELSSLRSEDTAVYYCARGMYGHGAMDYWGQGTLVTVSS VL: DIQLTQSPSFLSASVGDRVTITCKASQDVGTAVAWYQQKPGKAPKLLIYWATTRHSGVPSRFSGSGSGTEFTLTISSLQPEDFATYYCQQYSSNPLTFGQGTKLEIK | 9.05
91C9F1.p1.z7 hIgG1 (antibody, V domains shown, humanized hIgG1) VH: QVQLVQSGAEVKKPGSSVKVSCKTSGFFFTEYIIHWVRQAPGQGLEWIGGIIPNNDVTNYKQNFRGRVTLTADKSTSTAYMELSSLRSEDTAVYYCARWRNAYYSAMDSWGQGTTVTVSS VL: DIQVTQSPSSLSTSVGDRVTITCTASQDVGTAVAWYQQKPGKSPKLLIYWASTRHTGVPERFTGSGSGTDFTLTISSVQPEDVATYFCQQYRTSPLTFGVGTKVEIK | 8.62
62G10E4G8.p3.z15 hIgG1 (antibody, V domains shown, humanized hIgG1) VH: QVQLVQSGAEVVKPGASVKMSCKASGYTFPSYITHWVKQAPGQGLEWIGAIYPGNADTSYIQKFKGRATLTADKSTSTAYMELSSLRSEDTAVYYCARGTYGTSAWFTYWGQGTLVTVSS VL: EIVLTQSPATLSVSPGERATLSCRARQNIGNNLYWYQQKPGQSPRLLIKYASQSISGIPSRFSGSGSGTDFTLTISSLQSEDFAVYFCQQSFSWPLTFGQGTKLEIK | 8.42

Proceed to the following item.
Just so you know, measured pEC50 for 63A11D5B4.p1.z9 hIgG1 (antibody, V domains shown, humanized hIgG1) VH: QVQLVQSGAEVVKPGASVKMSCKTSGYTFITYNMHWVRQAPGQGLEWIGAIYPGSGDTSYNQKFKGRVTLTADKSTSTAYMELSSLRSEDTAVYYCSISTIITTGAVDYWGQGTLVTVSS VL: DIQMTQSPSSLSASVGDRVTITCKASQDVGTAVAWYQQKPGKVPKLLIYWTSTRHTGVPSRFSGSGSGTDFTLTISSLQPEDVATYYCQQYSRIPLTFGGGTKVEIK came out at 8.04

Numbers sourced from patent US20240301052A1.
